Reported GI50 is given for each of the following compounds.
tested on: KM12; assay: NCI tumour cell line growth inhibition, 48 h
The source made the active and inactive calls. Rule as the data show it: active = GI50 up to about 1.1 µM and inactive = higher.
Readout Name: GI50

INSERT INTO results (compound, measured_on, readout_name, value_observed) VALUES
  ('CCOC(=O)C(NC(=O)c1ccc(/N=N/N(C)C)cc1)C(C)C (stereo not given)', 'KM12', 'GI50', '> 100 µM (inactive)'),
  ('C[C@H](CCCOS(C)(=O)=O)[C@H]1CC[C@H]2[C@@H]3CC[C@@H]4C[C@H](OS(C)(=O)=O)CC[C@]4(C)[C@H]3CC[C@]12C', 'KM12', 'GI50', '29.2 µM (inactive)'),
  ('CCC(CCC(C)C1CCC2C3CC=C4CC(OC5OC(CO)C(O)C(O)C5O)CCC4(C)C3CCC12C)C(C)C (stereo not given)', 'KM12', 'GI50', '> 100 µM (inactive)'),
  ('COC(=O)C(I(OS(=O)(=O)c1ccc(C)cc1)c1ccccc1)=P(c1ccccc1)(c1ccccc1)c1ccccc1', 'KM12', 'GI50', '19.5 µM (inactive)'),
  ('CCOC(=O)CC(=O)Nc1cccc2sc3ncccc3c(=O)c12', 'KM12', 'GI50', '77.4 µM (inactive)'),
  ('C(=N\Nc1nnc2c(n1)[nH]c1ccccc12)/c1cccnc1', 'KM12', 'GI50', '3.69 µM (inactive)'),
  ('COc1cccc(/C=C2\SC(=S)N(/C=C3\C(=O)Oc4ccccc4C3=O)C2=O)c1O', 'KM12', 'GI50', '45.8 µM (inactive)'),
  ('COC(=O)C1C(O)C(C(=O)OC)C(C)N(C)C1C (stereo not given)', 'KM12', 'GI50', '> 100 µM (inactive)'),
  ('CCOC(=O)c1cn(CC)c2ccc3ccsc3c2c1=O', 'KM12', 'GI50', '> 100 µM (inactive)'),
  ('CC(=O)Nc1oc(C)c(C)c1S(=O)(=O)c1ccc(Cl)cc1', 'KM12', 'GI50', '39.4 µM (inactive)');
